- targetEntity: UniProt:P07550
- Sequence (P07550 whole entry): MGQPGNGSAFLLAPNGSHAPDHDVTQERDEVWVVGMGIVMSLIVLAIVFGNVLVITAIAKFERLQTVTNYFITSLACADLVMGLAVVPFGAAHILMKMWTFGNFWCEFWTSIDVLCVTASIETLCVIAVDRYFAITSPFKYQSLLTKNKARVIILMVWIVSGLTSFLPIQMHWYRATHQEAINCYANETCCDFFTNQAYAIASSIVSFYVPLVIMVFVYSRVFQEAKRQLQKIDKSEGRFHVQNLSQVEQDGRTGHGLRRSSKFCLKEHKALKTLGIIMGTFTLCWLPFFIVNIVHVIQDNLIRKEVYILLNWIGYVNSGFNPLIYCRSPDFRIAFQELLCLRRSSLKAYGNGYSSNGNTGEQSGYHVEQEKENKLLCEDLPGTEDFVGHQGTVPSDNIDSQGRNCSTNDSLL
- protocolDescription: Whole cell luciferase reporter assay of agonist potency in CHO cells expressing the hB2 receptor
- conditionContext: 4 h incubation, read-out: EC50 - beta2
quantityName: EC50 (nM)

molecule	unitAnnotation	EC50
CS(=O)(=O)Nc1cc([C@@H](O)CNCCCCCCCCCN2CCC(OC(=O)Nc3ccccc3-c3ccc(O)c(Cl)c3)CC2)ccc1O [Example 2]	nM	0.133

[1] CS(=O)(=O)Nc1cc([C@@H](O)CNCCCCCCCCCN2CCC(OC(=O)Nc3ccccc3-c3ccc(O)c(F)c3)CC2)ccc1O [Example 1]
[2] CS(=O)(=O)Nc1cc([C@@H](O)CNCCCCCCCCCN2CCC(OC(=O)Nc3ccc(F)cc3-c3ccc(O)c(Cl)c3)CC2)ccc1O [Example 3]
Input: Field: lower recorded EC50 (choose 1 or 2 ) Answer by quoting the chosen item's label.
Output: 2

Just for reference, patent US20080090873A1 is where these values come from.
